- protocolNotes: Plasma pharmacokinetics (LC-MS/MS, noncompartmental; GMR by linear mixed-effects model)
- runParameters: human, plasma, oral, Median Tmax, Day 1; Treatments F and E
metric: Tmax

Query: Note down Tmax recorded for COC(=O)[C@H](c1ccccc1Cl)N1CCc2sccc2C1 [Clopidogrel]
Reply: 1 to 1.5 h

====

- protocolNotes: Plasma pharmacokinetics (LC-MS/MS, noncompartmental; GMR by linear mixed-effects model)
- runParameters: human, plasma, oral, AUC(TAU), geometric mean [n] (90% CI), Day 1; plasma; Treatment C (placebo + aspirin + clopidogrel), Part 1
metric: AUC
Record the result as number plus unit.

Query: Output measured AUC for this item: O=C(O)c1ccccc1O [Salicylic acid, salicylic acid]
Reply: 93500 ng·h/mL

====

- protocolNotes: Plasma pharmacokinetics (LC-MS/MS, noncompartmental; GMR by linear mixed-effects model)
- runParameters: human, plasma, oral, Cmax, geometric mean (90% CI), Day 1; plasma; Treatment A (milvexian + aspirin + clopidogrel), Part 1
Cmax values by entry
The figure you give is taken to be in µg/mL; do not add the unit.

{"molecule": "C[C@@H]1CCC[C@H](n2cnc(-c3cc(Cl)ccc3-n3cc(Cl)nn3)cc2=O)c2cc(ccn2)-c2c(cnn2C(F)F)NC1=O", "Cmax (µg/mL)": 0.718}
{"molecule": "CC(=O)Oc1ccccc1C(=O)O [Aspirin, acetylsalicylic acid, reference compound]", "Cmax (µg/mL)": 3.05}
{"molecule": "O=C(O)c1ccccc1O", "Cmax (µg/mL)": 17.6}

Continue with the next molecule.
Query: Give Cmax for the following molecule: COC(=O)[C@H](c1ccccc1Cl)N1CCc2sccc2C1
Reply: 0.00329

====

- protocolNotes: Plasma pharmacokinetics (LC-MS/MS, noncompartmental; GMR by linear mixed-effects model)
- runParameters: human, plasma, oral, Median Tmax, Day 5; Treatments F and E
metric: Tmax

Query: Determine its reported Tmax: COC(=O)[C@H](c1ccccc1Cl)N1CCc2sccc2C1 [Clopidogrel]
Reply: 30 to 60 min

====

- protocolNotes: Plasma pharmacokinetics (LC-MS/MS, noncompartmental; GMR by linear mixed-effects model)
- runParameters: human, plasma, oral, AUC(TAU), geometric mean [n] (90% CI), Day 1; plasma; Treatment A (milvexian + aspirin + clopidogrel), Part 1
metric: AUC (ng·h/mL)
Just the number in ng·h/mL, nothing appended.

Query: Kindly indicate its recorded AUC. Item: O=C(O)c1ccccc1O [Salicylic acid, salicylic acid]
Reply: 92700

====

- protocolNotes: Plasma pharmacokinetics (LC-MS/MS, noncompartmental; GMR by linear mixed-effects model)
- runParameters: human, plasma, oral, Cmax, geometric mean (90% CI), Day 1; plasma; Treatment H (placebo + aspirin), Part 3
metric: Cmax (ng/mL)
Enter your answer as a number in ng/mL; do not include the unit.

{"molecule": "O=C(O)c1ccccc1O", "metric": "Cmax", "quantityUnit": "ng/mL", "val": 16500}

Query: Provide measured Cmax value, entry: CC(=O)Oc1ccccc1C(=O)O [Aspirin, acetylsalicylic acid, reference compound]
Reply: 2450

====

- protocolNotes: Plasma pharmacokinetics (LC-MS/MS, noncompartmental; GMR by linear mixed-effects model);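 note: participants at one US clinical research site, randomized 1:1:1 to a single study part, with 90% CIs from a mixed-effects model on log-transformed PK parameters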
- runParameters: human, plasma, oral, AUC(TAU), geometric mean [n] (90% CI), Day 1; plasma; Treatment B (milvexian alone), Part 1
metric: AUC (ng·h/mL)
Just the number please, in ng·h/mL, no unit attached.

Query: Name the recorded AUC of the molecule listed here: C[C@@H]1CCC[C@H](n2cnc(-c3cc(Cl)ccc3-n3cc(Cl)nn3)cc2=O)c2cc(ccn2)-c2c(cnn2C(F)F)NC1=O [Milvexian]
Reply: 5610
